Documented pKd across a set of binders
# tested-on: T1, recombinant human CD3 epsilon/delta heterodimer (human, UniProt P07766 23-126; P04234 22-105)
# T1 construct: Recombinant heterodimer used as analyte in Octet; also called hCD3 E/D; human CD3E/D
# test-details: BLI (Octet), mAb 5 ug/mL on FAB2G sensor, hCD3 E/D 200-50 nM
pKd: −log10 of the molar value.

- binder: "ABL-CD3-82 (antibody, V domains shown, mAb purified from hybridoma; chimeric AlivaMab IgG (human VH, CH1 and upper hinge; mouse middle hinge, CH2, CH3; human light chain)) VH: EVQLVESGGGLVKPGGSLRLSCAASGFTFSSYSMNWVRQAPGKGLEWVSSISSSSSYIYYADSVKGRFTISRDNAKNSLYLQMNSLRAEDTAVYYCARDRRELLLDYWGQGTLVTVSS VL: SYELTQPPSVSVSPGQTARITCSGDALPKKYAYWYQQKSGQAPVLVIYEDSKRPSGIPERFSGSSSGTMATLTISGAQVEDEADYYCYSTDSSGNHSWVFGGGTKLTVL"
  pKd: 7.97
- binder: "ABL-CD3-78 (antibody, V domains shown, mAb purified from hybridoma; chimeric AlivaMab IgG (human VH, CH1 and upper hinge; mouse middle hinge, CH2, CH3; human light chain)) VH: EVQLVESGGGLVKPGGSLRLSCAASGFTVSNYSMNWVRQAPGKGLEWVSCISRSSSYIYYADSVKGRFTISRDNAKNSLFLQMNSLRAEDTAVYYCARERWELLYFDYWGQGTLVTVSS VL: NFMLTQPHSVSESPGKTVTISCTRSSGSIASNYVQWYQQRPGSSPTTVIYEDNQRPSGVPDRFSGSIDSSSNSASLTISGLKTEDEADYYCQSFDGSNRVFGGGTKLTVL"
  pKd: 8.18

Data origin: patent US20260167721A1
